test: protein stability index of a GFP-peptide fusion (yeast GPS) (PSI 1-4); higher = more stable; sorted into four equal gates, so the index is relative within each strain; conditions: ubr1∆

sequence.chain: KTCAEVIGGNSLFHIVV [SMC3]
protein stability index: 3.01
--
sequence.chain: PSPISHVAEIRSALEKG [RPB2]
protein stability index: 1.76
--
sequence.chain: MSDSPLSKRQKRKSAQE [SMC4]
protein stability index: 3.46
--
sequence.chain: PTGGKAKLSEGTSFRRK [RPS27A]
protein stability index: 3.33
--
sequence.chain: PYAQKPLQGIFHNAVFN [QCR8]
protein stability index: 2.57
--
sequence.chain: SCGEEEFFSTNWLSIFN [REC8]
protein stability index: 2.96
--
sequence.chain: VIDGKLPFMQNAGPNSN [YDL088C/ASM4]
protein stability index: 2.92
--
sequence.chain: WNSLMYALQSVKLPRAF [RRP43]
protein stability index: 1.29
--
sequence.chain: VAADGKLVTYIVKFKQK [YLR335W/NUP2]
protein stability index: 2.02

----------
test: protein stability index of a GFP-peptide fusion (yeast GPS) (PSI 1-4); higher = more stable; sorted into four equal gates, so the index is relative within each strain; details: pdr5∆

sequence.chain: VIELPLKNPEIFQRVGI [RPT4]
protein stability index: 2.16
//
sequence.chain: ITRLCQTLGLESFTEEL [MED1]
protein stability index: 2.81
//
sequence.chain: LIALSLIMALLQFRPAP [SMC2]
protein stability index: 1.3
//
sequence.chain: FSFGAKANEKKESDESK [YJL041W/NSP1]
protein stability index: 3.38
//
sequence.chain: KPPTQKTDTKVSFRTHN [SRP21]
protein stability index: 2.82
//
sequence.chain: KVRLNASEREELALIEE [PRP8]
protein stability index: 2.89
//
sequence.chain: RQQAYKTAQTLDENLNS [YJL041W/NSP1]
protein stability index: 2.76
//
sequence.chain: NVSSNIVKNAEQHNLVK [RPS20]
protein stability index: 3.17
//
sequence.chain: LNLQFKAKVDDLVLGKP [YLR335W/NUP2]
protein stability index: 3.39
//
sequence.chain: ILGIAGEDFAVLAGDTR [PRE7]
protein stability index: 3.2
//
sequence.chain: EYQIVYYNPQAGTKITI [RGR1]
protein stability index: 2.1

----------
experiment: protein stability index of a GFP-peptide fusion (yeast GPS) (PSI 1-4); higher = more stable; sorted into four equal gates, so the index is relative within each strain; conditions: san1∆
Class membership depends on protein stability index alone; the intervals are low group = under 2, middle group = from 2 up to 3, high group = 3 and over

sequence.chain: TRFKAVVVVGDSNGHVG [RPS2]
group.label: low group

sequence.chain: AKWAPTLRTISFKGSPN [SNF2]
group.label: middle group

sequence.chain: QLDLTGIFLHGKIPTLK [PRP8]
group.label: low group

sequence.chain: TSDSESTLYKYLKESKR [SWI3]
group.label: middle group

sequence.chain: LPTRGTLESLENLVVAD [COR1]
group.label: middle group

sequence.chain: TKKPLMVKNVKPSSPPD [SIR4]
group.label: middle group

sequence.chain: MDFLNSMENTPKVPVSA [GAL11]
group.label: middle group

sequence.chain: NEIANSIIQSKQDCVDW [BRR2]
group.label: middle group

sequence.chain: QGVYGAVYETLISRMIF [BRR2]
group.label: low group

sequence.chain: HMAKGLYYGSYRSPRVL [COB]
group.label: low group

sequence.chain: INLAMNESSLALEFVSL [SRB4]
group.label: low group

sequence.chain: KKKKKGSNQKPKYEPPV [RPT2]
group.label: middle group

sequence.chain: EELLQLFLNNFVSRIPI [IRR1]
group.label: middle group

sequence.chain: KNVGNKSPEQCILRFLQ [SWI3]
group.label: middle group

sequence.chain: SVQTFGKKKSATAVAHV [RPS16A]
group.label: middle group

sequence.chain: FNTLVRIMSTRCMMAAQ [DIS3]
group.label: low group

sequence.chain: RQREMAEEQTKLQSQSL [YLR018C/POM34]
group.label: high group

sequence.chain: IGGSDAAFEKRYRVDLL [RPO21]
group.label: high group

sequence.chain: FQLPTTCVSMAPIQLKI [RGR1]
group.label: low group

sequence.chain: EENGDSIKEHSTTMDGA [MED1]
group.label: high group

sequence.chain: GAIKPFTPKLIYDFITL [ECM29]
group.label: low group

sequence.chain: RSLASFEQTAFSRHAQQ [SIR4]
group.label: middle group

sequence.chain: LFSPEEVRAISVAKIRF [RPO21]
group.label: middle group

sequence.chain: LKSPVLSKLCVPVANQF [QCR7]
group.label: low group

sequence.chain: TWTNSKIFIKDPKFVNS [YML103C/NUP188]
group.label: low group

sequence.chain: RGREEAASFKKLYKTPI [PRE10]
group.label: low group

sequence.chain: VKKPHRYKPGTVALREI [HHT1]
group.label: middle group

sequence.chain: DCQFWETWLGSQCRLHE [PRE2]
group.label: middle group

sequence.chain: VLGFLQLFHNLISIHSR [YJL039C/NUP192]
group.label: middle group

sequence.chain: KDALSNSILSVRDPWSI [SRB2]
group.label: high group

sequence.chain: QRQYKVQLLLHINSILL [SNF11]
group.label: low group

sequence.chain: FDISMADLSSSEEEEDE [SSN2]
group.label: high group

sequence.chain: NLCGDISLEALNFYITN [SIR3]
group.label: middle group

sequence.chain: VMFATNRPNTLDPALLR [RPT1]
group.label: middle group

sequence.chain: MEWPKDMLKYKEDEPVV [ITC1]
group.label: high group

sequence.chain: AQKRVVSYMMPSLYRLL [SRB8]
group.label: low group

sequence.chain: CWPKDSRMRLIRQDVNL [PRP8]
group.label: middle group

sequence.chain: LKHVLQLIFRQQTGLVD [SNU114]
group.label: low group

sequence.chain: IHSLIPVAKWFVKFITY [SIN4]
group.label: middle group

sequence.chain: KKENLTRDETVSLIKKY [YML103C/NUP188]
group.label: middle group

sequence.chain: NGVNVQIDQLNRLLPNL [GRR1]
group.label: middle group

sequence.chain: FDSVIVENLTVAQECIA [SMC1]
group.label: low group

sequence.chain: ALTKFEASQVTEKQRKK [RPL35A]
group.label: high group

sequence.chain: ATANATANATANVNASA [DSN1]
group.label: high group

sequence.chain: SLTYKKISLRDICLKLN [RPN3]
group.label: low group

sequence.chain: IGLPRHSLAYLLENFAN [RRP6]
group.label: low group

sequence.chain: ELSFYILYSFKLSGKLL [YML103C/NUP188]
group.label: low group

sequence.chain: PQYNMNMGMNNMNNGGK [PGD1]
group.label: high group

sequence.chain: KAAAGAGSAALKIIHDT [RPO31]
group.label: low group
